test system: Escherichia coli; assay: Inhibition of Escherichia coli biofilm formation after 24 hrs by crystal violet reporter assay; type: functional, organism-based
Recorded endpoint: IC50 (µM)
Answers are plain numbers, in µM.

Example results:
Nc1ncc(-c2cccc(NC(=O)C34CC5CC(CC(C5)C3)C4)c2)[nH]1; 43.4
CCCCCc1ccc(C(=O)Nc2cccc(-c3cnc(N)[nH]3)c2)cc1; 16.5
CCCCCc1ccc(C(=O)Nc2ccc(-c3cnc(N)[nH]3)cc2)cc1; 39.4
Cl.Nc1ncc(-c2ccc(NC(=O)c3cc(F)cc(F)c3)cc2)[nH]1; 5.2
Cl.Nc1ncc(-c2ccc(NC(=O)/C=C/c3ccccc3)cc2)[nH]1; 16.3

# input for lookup
Please provide the recorded IC50 for Nc1ncc(-c2cccc(NC(=O)CCC3CCCC3)c2)[nH]1 , tested on Escherichia coli. 47
